subject of test: Tyrosine-protein kinase ABL1 (Homo sapiens, UniProt P00519, T315A)
Sequence (P00519 whole entry T315A): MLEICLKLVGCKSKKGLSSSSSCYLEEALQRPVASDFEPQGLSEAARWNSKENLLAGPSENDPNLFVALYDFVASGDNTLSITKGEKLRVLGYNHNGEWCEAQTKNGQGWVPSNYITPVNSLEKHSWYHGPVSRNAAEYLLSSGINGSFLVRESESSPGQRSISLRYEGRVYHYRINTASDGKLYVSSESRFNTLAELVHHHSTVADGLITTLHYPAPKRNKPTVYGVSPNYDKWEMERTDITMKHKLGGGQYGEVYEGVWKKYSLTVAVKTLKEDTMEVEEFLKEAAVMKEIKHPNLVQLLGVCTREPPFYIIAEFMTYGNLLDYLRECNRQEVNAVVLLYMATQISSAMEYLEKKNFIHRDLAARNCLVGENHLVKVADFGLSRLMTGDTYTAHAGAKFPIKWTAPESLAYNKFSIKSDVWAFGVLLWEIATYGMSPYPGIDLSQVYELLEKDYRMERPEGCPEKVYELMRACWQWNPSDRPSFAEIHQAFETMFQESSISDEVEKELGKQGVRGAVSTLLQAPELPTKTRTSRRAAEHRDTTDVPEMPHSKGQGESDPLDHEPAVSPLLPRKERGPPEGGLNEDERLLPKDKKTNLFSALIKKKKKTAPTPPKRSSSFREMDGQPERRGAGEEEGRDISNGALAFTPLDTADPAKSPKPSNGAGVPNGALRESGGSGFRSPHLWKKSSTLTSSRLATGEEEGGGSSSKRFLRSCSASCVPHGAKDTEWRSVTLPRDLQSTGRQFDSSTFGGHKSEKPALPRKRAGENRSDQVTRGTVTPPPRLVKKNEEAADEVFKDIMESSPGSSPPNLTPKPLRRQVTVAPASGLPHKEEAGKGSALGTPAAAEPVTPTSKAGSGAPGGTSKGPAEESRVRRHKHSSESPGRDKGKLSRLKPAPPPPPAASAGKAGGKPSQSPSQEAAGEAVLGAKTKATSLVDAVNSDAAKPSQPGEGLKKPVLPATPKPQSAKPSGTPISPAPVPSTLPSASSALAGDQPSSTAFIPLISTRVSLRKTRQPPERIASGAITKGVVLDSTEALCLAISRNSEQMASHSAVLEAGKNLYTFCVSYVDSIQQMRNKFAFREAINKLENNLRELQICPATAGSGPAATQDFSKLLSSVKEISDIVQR
assay overview: Inhibition of c-Abl T315A mutant
parameter measured: pIC50
Formally, pIC50 is defined as -log10 of the concentration c, with c in mol/L.

The compound CC(C)(C)n1nc(Cc2cccc3ccccc23)c2c(N)ncnc21 , when measured on Tyrosine-protein kinase ABL1 (Homo sapiens, UniProt P00519, T315A), yielded pIC50 of 6.92
